Reference for the values: the supplement of paper PMC9170038

Quick list: apparent KD of MS2 coat protein per entry.
tested on: MS2 coat protein; test: apparent KD of MS2 coat protein; designed switch direction (-1 OFF switch, 1 ON switch): -1; higher = weaker reporter binding; conditions: input ligand: none

macromolecule sequence	value units	apparent KD of MS2 coat protein
UACAUGAGGAUCACCCAUGUUUUGUCGUGUAUGGUAUUUAUCUAGGAUAUCAAAUUAUUUAUUUAUGAGAAGGAGAAUAUUAAU [JMF's solution 9] (Eterna round: R96, puzzle: Exclusion NG 3)	nM	44.6
AAGUAGACGGUGAGGAUAUAGGUCGAAUGACCGAUUUAGAAGGCACAUGAGGAUCACCCAUGUGGGUAACGUCG [Brourd's EX4 #30] (Eterna round: R97, puzzle: Brourd's mod of Exclusion 4)	nM	27.5
CUAAUACAUCAGGAUAUGAUAGCUUAUAGCAUAUCAGAAGGGAUGACAUGAGGAUCACCCAUGUCAAAGGGUGA [eternacac ex6r4 sub18] (Eterna round: R97, puzzle: Exclusion 6)	nM	590
AAAAGGCAGGGAGGAUAUGCUUGCCUGGGUCGUCUUCAAACAUGAGGAUCACCCAUGUAGUCGACGCAGAAGGCCCUCAAAGAA [Mat - Exclusion NG 2 - Mod of JL - D62] (Eterna round: R96, puzzle: Exclusion NG 2)	nM	57.2
UUGAUACAUACCUCCAUAAACAUGAGGAUCACCCAUGUAAGUGAGGAUAUAGAUUGAUUAGUAUACUAGAAGGCACUUAGAUAU [JR_ExcNG3_Sub044] (Eterna round: R96, puzzle: Exclusion NG 3)	nM	13.3
AAACGGCAGGGAGGAUAUGCUUACCUGGGUCGUCUUCGAACAUGAGGAUCACCCAUGUAGUCGACGCAGAAGGCCCUCAAAGCC [JL ViennaUCT Ontiis mod 2] (Eterna round: R96, puzzle: Exclusion NG 2)	nM	21.5
CGCUGGUGAGGAUAUGGGUGUGGUUACAUGAGGAUCACCCAUGUGGUGUCGCAUGUGGGUCCAGAAGGCGCGGGUG [-25.2, -23.4 kcal, 17% A] (Eterna round: R97, puzzle: Exclusion 5)	nM	585
AAUUAGCAAGCGAGAUCCCACAUGAGGAUCACCCAUGUGCUCGUCUUAUAUAAGGUACUGUACAAAAGUACGGUACC [Mat - Sensor, turn-off var - Eli Mod - D32] (Eterna round: R97, puzzle: Sensor, turn-off variant 1)	nM	14.1
AAGAGAGCAGGAUAUACAUGAGGAUCACCCAUGUGGGAAAUAAGUGGCGUACCACAAAGUAGAAGGGCUUUCCA [jl-ex3-4.80 Eli automod] (Eterna round: R97, puzzle: Exclusion 3)	nM	86.2
CGUAGCAAAGUGAGGAUAUCUAGAGCCUCGGCUCUAGAGAAGGCACAUGAGGAUCACCCAUGUGAUUAGCUACG [BmEx4/9-A2] (Eterna round: R97, puzzle: Brourd's mod of Exclusion 4)	nM	24.1
ACAUGAGGAUCACCCAUGUCCGGUUGGUCUGUUCCGGCUGUCGAGGAUAUAGUCCGGUGUUCGCGCUAGAAGGUGAGGGCUGGA [Aenatbe mod 46] (Eterna round: R96, puzzle: Exclusion NG 3)	nM	500
CUGAGCUGAGGAUAUACAUGAGGAUCACCCAUGUAAAGUAGCUUGCGUACAGGCAGAUGUAGAAGGCAGUUCGG [Mod of JL 2 - Jieux - Exclusion 3] (Eterna round: R97, puzzle: Exclusion 3)	nM	20.5
AUAAUGUAAGGAUAUCAGUCGACUAGCUUCGGCUAGUCGACUGAGAAGGUACAUGAGGAUCACCCAUGUGGUUC [E4/11-A1] (Eterna round: R97, puzzle: Exclusion 4)	nM	985
AAUAGUAAUAAGGAUAUCACUAGCCUCGGCUAGUGAGAAGGUAUUACAUGAGGAUCACCCAUGUGGUCAAUUAA [E6/4-A2] (Eterna round: R97, puzzle: Exclusion 6)	nM	1130
UUAUAGUAUGUAGGAUAUCGGUCAGUUUCUGAUCGAGAAGGACAUGAGGAUCACCCAUGUAAGGCUACCGGUUUCUGGUGGCCG [JL ENG1 3.53] (Eterna round: R96, puzzle: Exclusion NG 1)	nM	26.1
UACAUGAGGAUCACCCAUGUUUUGUCGUGUAUGGUACCCAUCUAGGAUAUCGUGUUAUUUAACCACGAGAAGGAGAGUAUCAAU [MOD4 Solution 21 by JMF] (Eterna round: R96, puzzle: Exclusion NG 3)	nM	21.8
GGAAAUCAUGUAGGAUAUGCGUGGCGAAGCUAUGCAGAAGGACAUGAGGAUCACCCAUGUGCUUCCGUCUGCGUACAGACGGUA [Mat - Exclusion NG 1 - Mod of JL - D19] (Eterna round: R96, puzzle: Exclusion NG 1)	nM	143
CGGUCACUAGGAUAUCAGGAAAACUACAUGAGGAUCACCCAUGUACUGAGUGUAGGAGACUGAGAAGGAGUUCUUA [EX5 C.4] (Eterna round: R97, puzzle: Exclusion 5)	nM	22.3
